- test: STAT1 signaling activators, primary screen, cell-based, HTS, luciferase reporter (AID 932)
- cond: NIH 3T3 STAT1-luciferase reporter, IFN-gamma, luminescence; at 5.5 µM; 100% = IFN-gamma alone, no compound
Among all 200,000 compounds or so, about 5,100 (2.5%) were called active.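 Rule for the calls: active = activation above the screen-wide mean activation plus 3 SD (cut at about 130% in these data); inactive = the rest.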 This is one part of a sample in which actives are shown more often than they occur.
Classes to choose from: active, inactive

QUERY: I'd appreciate the recorded outcome for `CC(=O)c1cnc(SCC(=O)O)nc1C` from this test.
RESULT: inactive

QUERY: Name the outcome recorded for ClC1(Cl)CC1CSc1ncn[nH]1 (centres undefined) in the assay.
RESULT: inactive

QUERY: Just curious, what result did COc1ccc(C(C(=O)NC2CCCCC2)N(C(=O)Cc2c[nH]c3ccccc23)c2ccccc2)cc1OC (centres undefined) get here?
RESULT: inactive

QUERY: Tell me the recorded outcome of this test for CC1(C)C(c2cccs2)=[N+]([O-])C2(CCCCC2=O)N1O (centres undefined) .
RESULT: inactive

QUERY: Record request — test call for `O=C(N/N=C/c1ccc([N+](=O)[O-])cc1)C(=O)N1CCCC1`
RESULT: inactive

QUERY: I would be grateful if you could indicate the recorded call for `O=C(COC(=O)c1ccccn1)Nc1cccc2ccccc12` .
RESULT: inactive

QUERY: What classification did `CC(C)C(=O)Nc1cccc(NC(=O)c2ccc([N+](=O)[O-])cc2Cl)c1` end up with in this test?
RESULT: inactive

QUERY: What was the test verdict on `O=C(N/N=C\c1ccc(Br)cc1)c1ccc(Cn2cccn2)o1` ?
RESULT: inactive

QUERY: Any idea what this test logged for `O=C(/C=C/c1ccco1)Nc1cccc(-c2nc3ccccc3[nH]2)c1` ?
RESULT: inactive

QUERY: Look up the recorded call for `Cc1cccc(/C(N)=N/OC(=O)c2ccccc2Cl)c1` in this test.
RESULT: active

QUERY: Per the assay record, what outcome was assigned to `NC(=O)c1ccc(CN2CCC(Cc3ccccc3)CC2)cc1` ?
RESULT: inactive

QUERY: Name the outcome recorded for `CCc1nc(Nc2ccc3nccnc3c2)c2oc3ccccc3c2n1` in the assay.
RESULT: inactive

QUERY: For `CCc1nnc(NC(=O)Cc2cccs2)s1` , which call appears in the assay record?
RESULT: inactive

QUERY: For this compound, state the assay outcome: `Cc1cccc(C(=O)c2cccc(C)c2)c1`
RESULT: inactive

QUERY: For `CN(C)c1ccnc(Nc2ccc(F)cc2)c1C#N` , what call appears in the results of this test?
RESULT: inactive

QUERY: Test call, this compound: `O=C(/C=C/c1ccco1)Nc1ccc(Oc2ccccc2)cc1`
RESULT: active

QUERY: Please state the recorded outcome for this compound: `CSc1ncccc1C(=O)Nc1nc2ccc(F)cc2s1`
RESULT: inactive

QUERY: Entry `Cc1ccc(-n2c(SCC(=O)N3c4ccccc4Sc4ccccc43)nnc2-c2ccncc2)cc1` : call = ?
RESULT: inactive

QUERY: Short answer needed: outcome of this test for `CN1C(=O)/C(=C/C=C2\SCCN2C)OC1=S` ?
RESULT: active

QUERY: Call for entry `Cc1ccc(NC(=S)NC(=O)c2ccc(-c3ccccc3)cc2)cc1` :
RESULT: inactive

QUERY: Each compound tested received a call. Report the one for Cc1ccc(OCc2nnc(SC3CCc4ccccc4C3=O)n2C)cc1 (centres undefined) .
RESULT: inactive

QUERY: Per the records of this test, what outcome belongs to `Cc1nnc(NC(=O)/C=C/c2ccco2)s1` ?
RESULT: inactive

QUERY: What classification did `O=C(Nc1ccc(Br)cn1)c1ccc([N+](=O)[O-])o1` end up with in this test?
RESULT: inactive

QUERY: I'd appreciate the recorded outcome for `CC(C)c1ccc(Nc2ncccc2C#N)cc1` from this test.
RESULT: active

QUERY: Please state the recorded outcome for this compound: `C/C(=N\NC(=O)OC(C)(C)C)c1ccc[nH]1`
RESULT: active

QUERY: What was the test verdict on CCNC(=O)CC1C(=O)N(c2ccc(OC)cc2)C(=S)N1CCc1ccncc1 (centres undefined) ?
RESULT: inactive

QUERY: Test call for this compound, please: `O=C(Nc1ccccc1)c1cccnc1Nc1ccccc1`
RESULT: inactive

QUERY: Entry `Cc1ccc(NC(=S)NCc2ccccc2Cl)c(C)c1` : call = ?
RESULT: inactive

QUERY: Per the records of this test, what outcome belongs to CCCC(C)C(=O)NCc1ccncc1 (centres undefined) ?
RESULT: inactive

QUERY: Short answer needed: outcome of this test for `COc1ccccc1Nc1ncnc2c1oc1ccccc12` ?
RESULT: active

QUERY: Assay result, entry `COc1cccc(/C=N/NC(=O)C(=O)N2CCCC2)c1` — outcome?
RESULT: inactive

QUERY: # outcome recorded in this test, key = `CN(C)c1ccc(/C=N/Nc2cc(N3CCOCC3)nc(N3CCOCC3)n2)cc1`
RESULT: inactive

QUERY: // param item: `Cc1ccc(C)c(NC(=S)NNC(=O)c2csc(C)c2)c1` ; yields the recorded call
RESULT: inactive

QUERY: Test call, this compound: CC1(C)CC(N(Cc2ccccc2)C(=O)Cc2ccccc2)CCO1 (centres undefined)
RESULT: inactive

QUERY: Recorded test call requested for CC1COc2ccccc2N1C(=O)c1cccnc1Cl (centres undefined)
RESULT: inactive

QUERY: Hi, do you know how `CCCCCC(=O)Nc1ccc(-c2cn3cccnc3n2)cc1` came out in this test?
RESULT: inactive

QUERY: For this compound, state the assay outcome: `Cc1ccccc1NC(=O)NNC(=O)OC(C)(C)C`
RESULT: inactive

QUERY: For this compound, state the assay outcome: `Cc1ccc(NCc2n[nH]c(=S)n2-c2ccccc2)cc1Cl`
RESULT: inactive

QUERY: Could you please tell me the result logged for `CCOC(=O)c1cnc2[nH]c3ccccc3n2c1=O` in this assay?
RESULT: inactive

QUERY: Please state the recorded outcome for this compound: `Cc1ccc(C)c(-n2ccnc2SCC(N)=O)c1`
RESULT: inactive

QUERY: What call does the record list for `CCCc1nnc(NC(=O)c2cccs2)s1` ?
RESULT: inactive

QUERY: Hi team, can someone confirm the assay call for `Cc1nc(Cl)c2oc3ccccc3c2n1` ?
RESULT: inactive

QUERY: How did this test come out for `O=C(Nc1cccc(O)c1)c1ccc(C(=O)c2ccccc2)o1` ?
RESULT: inactive

QUERY: Please share the test call associated with `O=C(Nc1ccc(Br)cn1)c1ccc([N+](=O)[O-])cc1Cl` .
RESULT: active

QUERY: Fill in: this test's call for `COc1ccc(C(=O)Nc2ccc(S(=O)(=O)Nc3onc(C)c3C)cc2)cc1OC` is ___
RESULT: inactive

QUERY: Returns: the outcome recorded for O=c1cc(CO)oc(C(Nc2cccc(C(F)(F)F)c2)c2ccccn2)c1O (centres undefined) in this assay.
RESULT: inactive

QUERY: Please share the test call associated with `Cc1noc(NS(=O)(=O)c2ccc(N/C=C/C(=O)c3ccccc3)cc2)c1C` .
RESULT: inactive

QUERY: Please state the recorded outcome for this compound: `Cc1ccc(NC(=S)NC(=O)c2ccc(-c3ccccc3)cc2)c(C)c1`
RESULT: inactive

QUERY: Which result was noted for this compound in the test: `Cc1ccc(C(=O)NC(=S)Nc2ccccc2C)cc1`
RESULT: active
